# Tested system: USP7 (Homo sapiens)
# Construct: USP7, construct USP7 (208-1102) 6*His, Viva Biotech; 6xHis (C); purchased Viva Biotech
# Sequence (Q93009 208-1102): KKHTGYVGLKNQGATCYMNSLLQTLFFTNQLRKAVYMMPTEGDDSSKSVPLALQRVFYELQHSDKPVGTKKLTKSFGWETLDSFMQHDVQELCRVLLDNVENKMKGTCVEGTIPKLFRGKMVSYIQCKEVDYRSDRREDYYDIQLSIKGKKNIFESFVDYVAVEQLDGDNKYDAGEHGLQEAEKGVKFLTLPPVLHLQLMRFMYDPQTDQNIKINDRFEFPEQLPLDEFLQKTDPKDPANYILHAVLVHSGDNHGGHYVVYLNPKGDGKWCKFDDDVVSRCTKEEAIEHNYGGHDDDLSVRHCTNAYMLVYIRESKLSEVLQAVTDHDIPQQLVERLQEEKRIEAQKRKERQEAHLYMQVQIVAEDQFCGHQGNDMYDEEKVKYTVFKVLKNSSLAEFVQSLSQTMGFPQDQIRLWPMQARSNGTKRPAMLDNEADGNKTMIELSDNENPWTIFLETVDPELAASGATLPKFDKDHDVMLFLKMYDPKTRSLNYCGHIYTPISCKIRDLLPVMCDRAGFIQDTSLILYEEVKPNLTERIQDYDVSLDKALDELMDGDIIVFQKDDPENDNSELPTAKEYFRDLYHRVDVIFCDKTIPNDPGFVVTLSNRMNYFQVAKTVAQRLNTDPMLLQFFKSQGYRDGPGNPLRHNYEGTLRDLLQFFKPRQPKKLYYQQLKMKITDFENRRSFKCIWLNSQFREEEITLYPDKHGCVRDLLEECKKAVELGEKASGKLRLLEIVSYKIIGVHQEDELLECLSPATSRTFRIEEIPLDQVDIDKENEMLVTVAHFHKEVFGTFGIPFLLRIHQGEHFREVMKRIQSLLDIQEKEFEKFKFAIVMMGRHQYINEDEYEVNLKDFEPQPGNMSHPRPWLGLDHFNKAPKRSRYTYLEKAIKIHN
# Experimental protocol: USP7 Assay A (Ubitquin-Rhodamine 110 Assay)
# Type: biochemical
# Assay context: USP7 assay A and B (table does not say which assay per compound); read-out: USP7_IC50
Readout name: IC50

[
  {
    "Compound": "O=C(C1CC1)N1CCC(O)(Cn2cnc3c(cnn3-c3cccc(C(F)(F)F)c3)c2=O)CC1 [Compound I-34]",
    "Result": "> 10000 nM"
  },
  {
    "Compound": "O=C(c1ccc(=O)[nH]c1)N1CCC(O)(Cn2cnc3c(cnn3-c3ccccc3)c2=O)CC1 [Compound I-160]",
    "Result": "200 to 1000 nM"
  },
  {
    "Compound": "O=C(c1cnc(N2CCCCC2)o1)N1CCC(O)(Cn2cnc3c(cnn3-c3ccc(F)cc3)c2=O)CC1 [Compound I-536]",
    "Result": "1000 to 10000 nM"
  },
  {
    "Compound": "O=C(C1CC1)N1CCC(O)(Cn2cnc3c(cnn3-c3ccc(-c4ccc(O[C@H]5CCNC5)cc4)cc3)c2=O)CC1 [Compound I-841]",
    "Result": "200 to 1000 nM"
  },
  {
    "Compound": "O=C(c1ccc(-n2cccn2)cc1)N1CCC(O)(Cn2cnc3c(cnn3-c3ccc(F)cc3)c2=O)CC1 [Compound I-535]",
    "Result": "200 to 1000 nM"
  },
  {
    "Compound": "C#CC(=O)NC1CC(C(=O)N2CCC(O)(Cn3cnc4c(cnn4-c4ccccc4)c3=O)CC2)C1 (stereo not shown) [Compound I-259]",
    "Result": "1000 to 10000 nM"
  },
  {
    "Compound": "COc1ccc(C(=O)N2CCC(O)(Cn3cnc4c(cnn4-c4ccccc4)c3=O)CC2)cc1Cl [Compound I-214]",
    "Result": "200 to 1000 nM"
  },
  {
    "Compound": "Cc1noc(C)c1S(=O)(=O)Nc1ccc(-n2ncc3c(=O)n(CC4(O)CCN(C(=O)C5CC5)CC4)cnc32)cc1 [Compound I-1421]",
    "Result": "1000 to 10000 nM"
  },
  {
    "Compound": "C[C@]1(O)CCN(c2cc(-n3ncc4c(=O)n(CC5(O)CCN(C(=O)C6CC6)CC5)cnc43)ccc2F)C1 [Compound I-637]",
    "Result": "200 to 1000 nM"
  },
  {
    "Compound": "COc1cc(OC)cc(C(=O)N2CCC(O)(Cn3cnc4c(cnn4-c4ccccc4)c3=O)CC2)c1 [Compound I-203]",
    "Result": "> 10000 nM"
  },
  {
    "Compound": "N#CC1CCN(Cc2cccc(-n3ncc4c(=O)n(CC5(O)CCN(C(=O)C6CC6)CC5)cnc43)c2)CC1 [Compound I-446]",
    "Result": "1000 to 10000 nM"
  },
  {
    "Compound": "O=C(N1CCC(O)(Cn2cnc3c(cnn3-c3ccc(F)cc3)c2=O)CC1)C12CC(C(F)(F)F)(C1)C2 [Compound I-423]",
    "Result": "1000 to 10000 nM"
  },
  {
    "Compound": "O=C(C1CC1)N1CCC(O)(Cn2cnc3c(cnn3-c3ccc(NCCc4ccccc4)cc3)c2=O)CC1 [Compound I-1187]",
    "Result": "1000 to 10000 nM"
  },
  {
    "Compound": "O=C(c1ccc(OC(F)F)cc1)N1CCC(O)(Cn2cnc3c(cnn3-c3cccc(CO)c3)c2=O)CC1 [Compound I-989]",
    "Result": "1000 to 10000 nM"
  },
  {
    "Compound": "O=C(c1ccc(OC(F)F)cc1)N1CCC(O)(Cn2cnc3c(cnn3-c3ccc(F)c(CO)c3)c2=O)CC1 [Compound I-641]",
    "Result": "1000 to 10000 nM"
  },
  {
    "Compound": "CNC(=O)c1ccc(C(=O)N2CCC(O)(Cn3cnc4c(cnn4-c4ccccc4)c3=O)CC2)cc1 [Compound I-184]",
    "Result": "200 to 1000 nM"
  },
  {
    "Compound": "CNC1CCN(c2ccc(-c3ccc(-n4ncc5c(=O)n(CC6(O)CCN(C(=O)C7CC7)CC6)cnc54)cc3)cc2)C1 (stereo not shown) [Compound I-688]",
    "Result": "200 to 1000 nM"
  },
  {
    "Compound": "C[C@H](CC(=O)N1CCC(O)(Cn2cnc3c(cnn3-c3ccccc3)c2=O)CC1)c1ccccc1 [Compound I-72]",
    "Result": "< 200 nM"
  },
  {
    "Compound": "COc1ccc(Nc2ccc(-n3ncc4c(=O)n(CC5(O)CCN(C(=O)C6CC6)CC5)cnc43)cc2)cn1 [Compound I-1191]",
    "Result": "1000 to 10000 nM"
  },
  {
    "Compound": "O=C(c1ccc(F)cc1)N1CCC(O)(Cn2cnc3c(cnn3-c3cccc(C4CCNCC4)c3)c2=O)CC1 [Compound I-993]",
    "Result": "1000 to 10000 nM"
  },
  {
    "Compound": "C[C@@H](CC(=O)N1CCC(O)(Cn2cnc3c(cnn3-c3ccc(F)cc3)c2=O)CC1)N1CC2CCCC2C1 (stereo partly shown) [Compound I-524]",
    "Result": "1000 to 10000 nM"
  },
  {
    "Compound": "O=C(c1ccc(C(F)(F)F)nc1)N1CCC(O)(Cn2cnc3c(cnn3-c3ccc(F)cc3)c2=O)CC1 [Compound I-422]",
    "Result": "> 10000 nM"
  },
  {
    "Compound": "COc1ccc(OC)c(C(=O)N2CCC(O)(Cn3cnc4c(cnn4-c4ccccc4)c3=O)CC2)c1 [Compound I-221]",
    "Result": "1000 to 10000 nM"
  },
  {
    "Compound": "Cn1ncc2c(=O)n(CC3(O)CCN(C(=O)c4ccc(-c5ccccc5CC#N)cc4)CC3)cnc21 [Compound I-83]",
    "Result": "1000 to 10000 nM"
  },
  {
    "Compound": "O=C(c1ccc(F)cc1)N1CCC(O)(Cn2cnc3c(cnn3-c3ccc(F)c(N4CCNCC4)c3)c2=O)CC1 [Compound I-824]",
    "Result": "200 to 1000 nM"
  },
  {
    "Compound": "Nc1cccc(-n2ncc3c(=O)n(CC4(O)CCN(C(=O)C5CC5)CC4)cnc32)c1 [Compound I-964]",
    "Result": "1000 to 10000 nM"
  },
  {
    "Compound": "Cc1cc(C)cc(C(=O)N2CCC(O)(Cn3cnc4c(cnn4-c4ccccc4)c3=O)CC2)c1 [Compound I-197]",
    "Result": "1000 to 10000 nM"
  },
  {
    "Compound": "CN(C)C(=O)Nc1ccc(-n2ncc3c(=O)n(CC4(O)CCN(C(=O)c5ccc(F)cc5)CC4)cnc32)cc1 [Compound I-1576]",
    "Result": "1000 to 10000 nM"
  }
]
